Taken from patent US12304912B2.

# assaySummary: Plasma protein binding assay, human plasma (hPPB)
# Assay type: in vitro ADME
# assayConditions: 5 μM, equilibrium dialysis 4 hours at 37° C.
// reported hPPB (% free) per item

Guide cases for hPPB (% free), answers given:
# molecule, hPPB (% free)
records = [
    ("O=C(Nc1cc(Oc2ccc3c(c2)CC(c2nc(-c4ccccc4)c[nH]2)CO3)ccn1)C1CC(F)(F)C1 (stereo not drawn)", "<0.1 % free"),
    ("O=C(Nc1cc(Oc2ccc3c(c2)CC(c2nc(-c4ccccc4)c[nH]2)CO3)ccn1)C1(F)CC1 (stereo not drawn)", "<0.1 % free"),
]

Now turn to the next molecule.
Fill blank: measured hPPB (% free) of the molecule Cc1c[nH]c(-c2cc(Oc3ccc4c(c3)CC(c3nc(-c5ccccc5)c[nH]3)CO4)ccn2)n1 (stereo not drawn) is ____.
<0.1 % free

---

# assaySummary: Microsomal stability assay, human liver microsomes (HLM)
# Format: in vitro ADME
# assayConditions: 0.5 mg/mL protein, 1 μM substrate, 37° C.
measuredAttribute: microsomal CLint at 1 μM (µL/min/mg)
Response body: numeric value in µL/min/mg, unit text excluded.

# compound, microsomal CLint at 1 μM [µL/min/mg]
data = [
    ("O=C1CCc2c(Oc3ccc4c(c3)CC(c3nc(-c5cncc(C(F)(F)F)c5)c[nH]3)CO4)ccnc2N1 (stereo not shown) [Compound 103]", 11.6),
    ("O=C(Nc1nccc(Oc2ccc3c(c2)CC(c2nc(-c4ccccc4)c[nH]2)CO3)n1)C1CC1 (stereo not shown) [Compound 148]", 132),
]

Given O=C(Cn1ccnc1)Nc1cc(Oc2ccc3c(c2)CC(c2nc(-c4ccccc4)c[nH]2)CO3)ccn1 (stereo not shown) [Compound 144] , state its recorded microsomal CLint at 1 μM.
27.1

Let us now turn to O=C(Nc1cc(Oc2ccc3c(c2)CC(c2nc(-c4ccccc4)c[nH]2)CO3)ccn1)C1(F)CC1 (stereo not shown) [Compound 138]
134

Please do the same for O=C(CN1CCOCC1)Nc1cc(Oc2ccc3c(c2)CC(c2nc(-c4ccccc4)c[nH]2)CO3)ccn1 (stereo not shown) [Compound 149] as well.
63.7

Also check O=C(Nc1cc(Oc2ccc3c(c2)CC(c2nc(-c4ccc(F)cc4)c[nH]2)CO3)ccn1)C1CC1 (stereo not shown) [Compound 155]
28.9

// same read-out, input: O=C1CCc2c(Oc3ccc4c(c3)CC(c3nc(-c5ccnc(C(F)F)c5)c[nH]3)CO4)ccnc2N1 (stereo not shown) [Compound 101]
29.6

---

# assaySummary: Microsomal stability assay, human liver microsomes (HLM)
# Assay type: in vitro ADME
# assayConditions: 0.5 mg/mL protein, 1 μM substrate, 37° C.
measuredAttribute: microsomal CLint at 1 μM (µL/min/mg)
Give the quantity in µL/min/mg, number only.

Find the recorded microsomal CLint at 1 μM belonging to Cc1cc(-c2c[nH]c(C3COc4ccc(Oc5ccnc6c5CCC(=O)N6)cc4C3)n2)ccn1 (stereo not shown) [Compound 117] and report it.
43.3

Cc1cc(-c2c[nH]c(C3COc4ccc(Oc5ccnc6c5CCC(=O)N6)cc4C3)n2)n(C(C)C)n1 (stereo not shown) [Compound 112] , same question.
81.5

Likewise for COc1csc(-c2c[nH]c(C3COc4ccc(Oc5ccnc6c5CCC(=O)N6)cc4C3)n2)c1 (stereo not shown) [Compound 122] ?
80.3

Record: Cc1ccc(-c2c[nH]c(C3COc4ccc(Oc5ccnc6c5CCC(=O)N6)cc4C3)n2)s1 (stereo not shown) [Compound 110]
48.3

---

# assaySummary: Microsomal stability assay, mouse liver microsomes (MLM)
# Assay type: in vitro ADME
# assayConditions: 0.5 mg/mL protein, 1 μM substrate
Items are presented alongside their recorded microsomal CLint at 1 μM.
Numeric only. Scale: µL/min/mg

Reference set, count: 2
# molecule, valueObserved
data = [
    ("COc1cccc(-c2c[nH]c(C3COc4ccc(Oc5ccnc6c5CCC(=O)N6)cc4C3)n2)c1 (stereo not drawn)", 114),
    ("O=C1CCc2c(Oc3ccc4c(c3)CC(c3nc(-c5ccnc(C(F)(F)F)c5)c[nH]3)CO4)ccnc2N1 (stereo not drawn)", 13.9),
]

Consider the additional molecule presented here.
Tell me the measured microsomal CLint at 1 μM of Cc1ccccc1-c1c[nH]c(C2COc3ccc(Oc4ccnc5c4CCC(=O)N5)cc3C2)n1 (stereo not drawn) , please.
85.8

---

# assaySummary: Plasma protein binding assay, mouse plasma (mPPB)
# Format: in vitro ADME
# assayConditions: 5 μM, equilibrium dialysis 4 hours 37° C.
Field: label. Allowed values: condition met (mPPB (% free) < 0.9 % free) or condition not met (mPPB (% free) >= 0.9 % free).

Does O=C(Nc1cc(Oc2ccc3c(c2)CC(c2nc(-c4ccccc4)c[nH]2)CO3)ccn1)C1CC1 (centres unmarked) [Compound 45] have mPPB (% free) strictly under 0.9 % free?
condition met

Can you handle CN(C)Cc1cc(C(F)(F)F)cc2nc(C3COc4ccc(Oc5ccnc6c5CCC(=O)N6)cc4C3)[nH]c12 (centres unmarked) [Compound 33] next?
condition not met

Also Cc1cc2nc(C3COc4ccc(Oc5ccnc6c5CCC(=O)N6)cc4C3)[nH]c2cc1C (centres unmarked) [Compound 29] ?
condition met

Same lookup for COc1ccccc1-c1c[nH]c(C2COc3ccc(Oc4ccnc5c4CCC(=O)N5)cc3C2)n1 (centres unmarked) [Compound 1] , please.
condition met

Would you kindly repeat that for Cc1ccccc1-c1c[nH]c(C2COc3ccc(Oc4ccnc5c4CCC(=O)N5)cc3C2)n1 (centres unmarked) [Compound 2] ?
condition not met

Field entry: O=C1CCc2c(Oc3ccc4c(c3)CN(C(=O)Nc3ccccc3C(F)(F)F)CC4)ccnc2N1 [Compound 49]
condition not met

Same question, O=C1CCc2c(Oc3ccc4c(c3)CC(c3nc(-c5cccc(F)c5)c[nH]3)CO4)ccnc2N1 (centres unmarked) [Compound 15] this time
condition not met

---

# assaySummary: Plasma protein binding assay, human plasma (hPPB)
# Assay type: in vitro ADME
# assayConditions: 5 μM, equilibrium dialysis 4 hours at 37° C.
measuredAttribute: hPPB (% free)

Some compounds with known hPPB (% free) results, for comparison:
# compound, measuredAttribute, valueObserved
rows = [
    ("O=C1CCc2c(Oc3ccc4c(c3)CC(c3nc5ccncc5[nH]3)CO4)ccnc2N1 (stereo not shown) [Compound 134]", "hPPB (% free)", "6.1 % free"),
    ("O=C(CN1CCOCC1)Nc1cc(Oc2ccc3c(c2)CC(c2nc(-c4ccccc4)c[nH]2)CO3)ccn1 (stereo not shown) [Compound 149]", "hPPB (% free)", "0.25 % free"),
]

Look at this compound and give its reported hPPB (% free). O=C1CCc2c(Oc3ccc4c(c3)CC(c3nc(-c5cncc(C(F)(F)F)c5)c[nH]3)CO4)ccnc2N1 (stereo not shown) [Compound 103]
0.6 % free

Entry COc1ccsc1-c1c[nH]c(C2COc3ccc(Oc4ccnc5c4CCC(=O)N5)cc3C2)n1 (stereo not shown) [Compound 123] please
0.23 % free

Another compound to look at: O=C(Cn1ccnc1)Nc1cc(Oc2ccc3c(c2)CC(c2nc(-c4ccccc4)c[nH]2)CO3)ccn1 (stereo not shown) [Compound 144]
0.7 % free

And for O=C(Nc1nccc(Oc2ccc3c(c2)CC(c2nc(-c4ccccc4)c[nH]2)CO3)n1)C1CC1 (stereo not shown) [Compound 148] ?
0.9 % free

What do you have for CC(C)(C)CCc1c[nH]c(C2COc3ccc(Oc4ccnc5c4CCC(=O)N5)cc3C2)n1 (stereo not shown) [Compound 115] ?
0.3 % free

---

Measured log10 IC50 of individual entries
# Tested on: RAF dimers in HCT-116 cells
# assaySummary: HCT-116 AlphaLISA SureFire pERK1/2 cellular assay (dimer)
# Type: cell-based
# assayConditions: Homo sapiens, HCT-116; HCT116 cells, dimer, 1 hr; read-out: pERK HCT116 dimer (1 hr) plC50 (converted)
Response schema: value (number) is log10 of IC50 in units of nM.

Known results for compounds:
# compound, targetDesc, valueObserved
data = [
    ("O=C(Nc1cc(Oc2ccc3c(c2)CC(c2nc(-c4ccc(F)cc4)c[nH]2)CO3)ccn1)C1CC1 (stereo not shown) [Compound 155]", "RAF dimers in HCT-116 cells", 1.86),
    ("O=C1CCc2c(Oc3ccc4c(c3)CC(c3nc(-c5cccnc5C(F)(F)F)c[nH]3)CO4)ccnc2N1 (stereo not shown) [Compound 128]", "RAF dimers in HCT-116 cells", 2.42),
    ("O=C(Nc1cc(Oc2ccc3c(c2)CC(c2nc(-c4ccccc4)c[nH]2)CO3)ccn1)C1(F)CC1 (stereo not shown) [Compound 138]", "RAF dimers in HCT-116 cells", 2.91),
    ("O=C1CCc2c(Oc3ccc4c(c3)CC(c3nc(-c5ccc(C(F)(F)F)nc5)c[nH]3)CO4)ccnc2N1 (stereo not shown) [Compound 127]", "RAF dimers in HCT-116 cells", 2.20),
    ("COc1csc(-c2c[nH]c(C3COc4ccc(Oc5ccnc6c5CCC(=O)N6)cc4C3)n2)c1 (stereo not shown) [Compound 122]", "RAF dimers in HCT-116 cells", 2.21),
]

For the compound shown here, O=C1CCc2c(Oc3ccc4c(c3)CC(c3nc(-c5cncc(C(F)(F)F)c5)c[nH]3)CO4)ccnc2N1 (stereo not shown) [Compound 103] , give the reported log10 IC50.
2.03

Repeat with O=C1CCc2c(Oc3ccc4c(c3)CC(c3nc(-c5ccnc(C(F)(F)F)c5)c[nH]3)CO4)ccnc2N1 (stereo not shown) [Compound 8]
2.43

Follow-up entry: O=C(Cn1ccnc1)Nc1cc(Oc2ccc3c(c2)CC(c2nc(-c4ccccc4)c[nH]2)CO3)ccn1 (stereo not shown) [Compound 144]
1.78
